- System Tested: T1, huNABA-avi-his (hybrid protein N-A1-B3-A2: N and A1 domains of human BGP, B3 domain of human CEA, A2 domain … (human, biotinylated at the avi tag (in vivo, co-transfected biotin ligase)))
- T1 construct: also called NABA-avi-his reagent; biotinylated NABA
- T1 chain: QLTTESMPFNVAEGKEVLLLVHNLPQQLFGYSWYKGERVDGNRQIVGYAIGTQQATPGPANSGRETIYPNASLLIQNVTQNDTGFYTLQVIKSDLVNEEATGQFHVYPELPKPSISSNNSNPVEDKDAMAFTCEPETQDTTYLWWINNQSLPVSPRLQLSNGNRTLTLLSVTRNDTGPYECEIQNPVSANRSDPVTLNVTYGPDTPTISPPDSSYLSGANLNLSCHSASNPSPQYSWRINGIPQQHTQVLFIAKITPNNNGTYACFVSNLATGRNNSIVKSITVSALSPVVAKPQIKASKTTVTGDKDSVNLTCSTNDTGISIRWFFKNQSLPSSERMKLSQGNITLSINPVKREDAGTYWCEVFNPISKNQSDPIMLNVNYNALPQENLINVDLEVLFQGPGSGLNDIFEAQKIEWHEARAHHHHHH
- Protocol Notes: Proteon SPR, antibody analyte on biotinylated NABA (Neutravidin chip); column Ka (M)
Measured Attribute: kon
// return the numeric value with its unit appended

Past entries and their recorded results:
Entry anti-CEA antibody with heavy chain CH1A1 and light chain 2F1 (antibody, V domains shown, CH1A with M69F/T71L double point mutation; also called precursor clone CH1A1) VH: QVQLVQSGAEVKKPGASVKVSCKASGYTFTEFGMNWVRQAPGQGLEWMGWINTKTGEATYVEEFKGRVTFTLDTSTSTAYMELRSLRSDDTAVYYCARWDFYDYVEAMDYWGQGTTVTVSS VL: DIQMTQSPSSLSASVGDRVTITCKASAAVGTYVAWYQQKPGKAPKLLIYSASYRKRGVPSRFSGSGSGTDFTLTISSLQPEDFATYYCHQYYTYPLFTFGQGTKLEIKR : reported kon = ?
81900 M⁻¹ s⁻¹

Moving on to anti-CEA antibody with heavy chain CH1A1D and light chain 2F1 (antibody, V domains shown) VH: QVQLVQSGAEVKKPGETVKISCKASGYTFTEFGMNWVRQAPGQGLEWMGWINTKTGEATYVEEFKGRVTMTTDTSTSTAYMELRSLRSDDTAVYYCARWDFYDYVEAMDYWGQGTTVTVSS VL: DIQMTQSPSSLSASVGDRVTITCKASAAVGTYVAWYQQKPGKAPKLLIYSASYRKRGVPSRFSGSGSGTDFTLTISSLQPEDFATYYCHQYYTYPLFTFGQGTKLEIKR
53100 M⁻¹ s⁻¹

Moving on to humanized PR1A3 antibody with heavy chain variable region CH7A and light chain variable region 2F1 (antibody, V domains shown, Measured in the bivalent form; also called CH7Ax2F1; parental antibody CH7A) VH: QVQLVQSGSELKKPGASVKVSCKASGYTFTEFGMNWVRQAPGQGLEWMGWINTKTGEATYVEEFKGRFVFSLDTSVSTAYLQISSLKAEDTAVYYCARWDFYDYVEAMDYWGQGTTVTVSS VL: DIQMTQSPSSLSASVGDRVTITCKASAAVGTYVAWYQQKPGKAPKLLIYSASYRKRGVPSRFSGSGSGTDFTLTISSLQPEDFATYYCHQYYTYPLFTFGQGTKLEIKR
122000 M⁻¹ s⁻¹

Moving on to anti-CEA antibody with heavy chain CH1A1A and light chain 2F1 (antibody, V domains shown) VH: QVQLVQSGAEVKKPGASVKVSCKASGYTFTEFGMNWVRQAPGQGLEWMGWINTKTGEATYVEEFKGRVTFTTDTSTSTAYMELRSLRSDDTAVYYCARWDFYDYVEAMDYWGQGTTVTVSS VL: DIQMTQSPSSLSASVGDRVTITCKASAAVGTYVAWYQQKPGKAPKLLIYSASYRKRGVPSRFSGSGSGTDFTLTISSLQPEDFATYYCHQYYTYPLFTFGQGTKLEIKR
81800 M⁻¹ s⁻¹

***
Entry anti-CEA antibody with heavy chain CH1A1C and light chain 2F1 (antibody, V domains shown) VH: QVQLVQSGPELKKPGASVKVSCKASGYTFTEFGMNWVRQAPGQGLEWMGWINTKTGEATYVEEFKGRVTMTTDTSTSTAYMELRSLRSDDTAVYYCARWDFYDYVEAMDYWGQGTTVTVSS VL: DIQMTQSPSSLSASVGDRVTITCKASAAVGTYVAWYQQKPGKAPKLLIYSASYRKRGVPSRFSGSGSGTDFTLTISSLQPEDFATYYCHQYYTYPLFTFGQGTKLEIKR : reported kon = ?
44900 M⁻¹ s⁻¹

Origin of the recorded values: patent US20230365711A1
